- protocol: folding enthalpy; higher = less favourable; fluorescence melt of hairpins on a sequencing array, two-state fit
- run conditions: sodium 0.088 M
List of folding enthalpy values.
measure: folding enthalpy (kcal/mol)

polymer sequence	measure	endpoint result
GGGCCGGCGAAAGCCCCC (((..(((....))))))	folding enthalpy	-11.2
GGAGGCGAAAGCCCATCC ((((((....)))..)))	folding enthalpy	-9.1
GGGAATGGAAACGTTTCC ((.((.(....).)).))	folding enthalpy	-15.3
GTTTCTGGAAACAGAGAC ((.((((....)))).))	folding enthalpy	-26.9
GATCCGTAGCGGATC ((((((...))))))	folding enthalpy	-35.6
GGTTTAGGAAACTAAACC (((((((....)))))))	folding enthalpy	-54.6
GAAACAGGAAACTGTTCC (.(((((....))))).)	folding enthalpy	-14.9
GAGCCCGGAAACGGGTTC ((.((((....)))).))	folding enthalpy	-27
GCTACGGCGAAAGCCAGC (((..(((....))))))	folding enthalpy	-13.3
GCTCAGGGAAACCTGAAC (.(((((....))))).)	folding enthalpy	-17.4
GGGATCGAAAGATAACCC ((((((....)))..)))	folding enthalpy	-19.4
GAGGGCGCGAAAGCGCTC (((..(((....))))))	folding enthalpy	-7.69

---

List of folding enthalpy values.
- protocol: folding enthalpy; higher = less favourable; fluorescence melt of hairpins on a sequencing array, two-state fit
- run conditions: sodium 0.088 M
measure: folding enthalpy (kcal/mol)

polymer sequence	endpoint result
GCAGATGGAAACATCTGC (((((((....)))))))	-37.5
GGATCCGAAAGGAGATCC ((((((....)))..)))	-24
GTACTGAAAAGTAC (((((....)))))	-20.8
GAGCTTGCGAAAGCACTC (((..(((....))))))	-10.9
GCGAAAGATCGC ((((....))))	-12.4
GGTATCACGAAAGTGACC (((..(((....))))))	-9.93

---

- protocol: folding enthalpy; higher = less favourable; fluorescence melt of hairpins on a sequencing array, two-state fit
- run conditions: sodium 0.088 M
measure: folding enthalpy (kcal/mol)

polymer sequence	endpoint result
GATCTGTCCTCAGATC ((((((....))))))	-46.8
GATCCGATATCGGATC ((((((....))))))	-39.9
GCCCACGAAAGTGGCGGC ((((((....)))..)))	-14
GGTCTGGGAAACTGGACC ((((..(....)..))))	-31.1
GCGTTGCGAAAGCATCGC (((.(((....))).)))	-55.8
GCCACTCGAAAGAGAGGC (((.(((....))).)))	-39.1
GTAATTGAAAAATTAC ((((((....))))))	-26.2
GACATCCGAAAGGAGTC (((.(((....))))))	-21.2
GCTCGCGGAAACGCAAGC (((.(((....))).)))	-28.7
GGTGGTGGAAACATCGCC ((.(.((....)).).))	-27.4
GGGTGCACGAAAGTGCCC (((..(((....))))))	-12.9
GCTGAAGCGAAAGCTAGC (((..(((....))))))	-18.6
GCGCCCGAAAGGGTTCGC ((((((....)))..)))	-17.7
GAGGTTGGAAACAGTCTC (((..((....))..)))	-10.1
CGGTACGGAAACGTCCG (((.(((....))))))	-20.9
GTTCGGGGAAACCTGAAC ((((.((....)).))))	-38.9
GGAATGCGAAAGCAGTCC (((.(((....))).)))	-36.6
GATCGGTTAGCCGATC ((((((....))))))	-46.4
GATCATCCAATGATC ((((((...))))))	-31.4
GAGGGCGAAAGCCTTCTC ((((((....)))..)))	-16.6
GCATCAGCGAAAGCTTGC (((..(((....))))))	-13.2
CGCGTGCGGAAACGCGCG (((..(((....))))))	-12.4
GTATGCGAAAGCAGTTAC ((((((....)))..)))	-10.1
GATCCCGGAAACGAGATC ((((.((....)).))))	-29.6
GCGGATTCGAAAGAACGC (((..(((....))))))	-27.2

---

- protocol: melting temperature; fluorescence melt of hairpins on a sequencing array, two-state fit, raised by 9.35 °C to match UV melts
- run conditions: sodium 0.088 M
List of Tm values.

polymer sequence	Tm / °C
GCAAGCGAAAGCTTTTGC ((((((....)))..)))	42.2
GCGTGGCGAAAGCTTCGC (((..((....))..)))	59.5
GTTCTAGGAAACTAGGAC ((.((((....)))).))	39.7
GTGGTGGGAAACTACCAC (((((.(....).)))))	52.6
GAGTCACGAAAGTGGCTC (((.(((....))).)))	64.7
GGTTCCGAAAGGAAACC ((((((....))).)))	53.7
GAAGTCGGAAACGACCTC ((.((((....)))).))	37.2
GGGCCCGAAAGGGTACCC ((((((....)))..)))	57.3
GGCATCGAAAGATATGCC ((((((....)))..)))	47.5
GTTTTTACGAAAGTAAAC (((..(((....))))))	29.9
GGTATGCGAAAGCAAACC (((.(((....))).)))	53
GATCGACCCGTCGATC ((((((....))))))	60.1
GATTCTCCGAAAGGAATC (((..(((....))))))	28.2
GCAAAAGAAATTTTGC ((((((....))))))	46.3
GCCCACGAAAGTGGCGGC ((((((....)))..)))	57.6
GATCAATAATTGATC ((((((...))))))	40.3
GTGTCACGAAAGTGCAC (((.(((....))))))	53.5
GGGGTCTCGAAAGAGCCC (((..(((....))))))	58.9
GCTACGCGAAAGCTCAGC (((..((....))..)))	37
GCCATGCGAAAGCCCGGC (((..((....))..)))	43.1
GTTCTGGGAAACTAGAAC (((((.(....).)))))	42.9
GGTCCAGGAAACCAGACC ((((..(....)..))))	34.5
GTTTCCGAAAGGATTAAC ((((((....)))..)))	28.6
GGATCGGGAAACCGGTTC (.(.(((....))).).)	38.2
GTCTGTACGAAAGTAGAC (((..(((....))))))	36.4

---

- protocol: melting temperature; fluorescence melt of hairpins on a sequencing array, two-state fit, raised by 9.35 °C to match UV melts
- run conditions: sodium 0.088 M
measure: Tm (°C)

polymer sequence	endpoint result
GCTAGCGAAAGCTACAGC ((((((....)))..)))	39.6
GATCTCAAAGAGATC ((((((...))))))	55.2
GTATCCGAAAGGATAC ((((((....))))))	65.8
CAAGTGAAAACTTG (((((....)))))	42.9
GTCTGCGAAAGCAGGGAC ((((((....)))..)))	42.8
GGGCCGGCGAAAGCCCCC (((..(((....))))))	51

---

- protocol: folding enthalpy; higher = less favourable; fluorescence melt of hairpins on a sequencing array, two-state fit
- run conditions: sodium 0.088 M
Assign class by folding enthalpy: not lower than -30 kcal/mol means rule met; lower than -30 kcal/mol means rule not met.

polymer sequence	category label
GACGCCCGAAAGGGAGTC (((.(((....))).)))	rule not met
GGACGGGGAAACCTGTCC ((((.((....)).))))	rule not met
GCTTCCGAAAGGAAGAGC ((((((....)))..)))	rule met
GATCGGCTGCCCGATC ((((((....))))))	rule not met
GCCCCGGGAAACCGGAGC ((.((((....)))).))	rule met
GATCTACCGGTAGATC ((((((....))))))	rule not met
GGTGGTTCGAAAGAAACC (((..(((....))))))	rule met
GGCATTGAAAAATGCC ((((((....))))))	rule not met
GATCACCCGCGTGATC ((((((....))))))	rule not met
GCGTGGCGAAAGCTCCGC (((..((....))..)))	rule met
GTAGCCGAAAGGCTTTAC ((((((....)))..)))	rule met
GATCCATGAGTGGATC ((((((....))))))	rule not met
GACTTCGGAAACGGAGTC ((((.((....)).))))	rule not met
GCTGAACCGAAAGGTAGC (((..(((....))))))	rule met
GCGTAGTCACGC ((((....))))	rule met
GTTCCAGGAAACTGGAAC (((((((....)))))))	rule not met
GATCTCTATTGAGATC ((((((....))))))	rule not met
GGATCCGAAAGGAGTTCC ((((((....)))..)))	rule met
GGTACAGAAATGTACC ((((((....))))))	rule not met
CGGCCGGAAACGGTGCCG ((((((....)))..)))	rule not met
GCGTAACGAAAGTTGCGC (((.(((....))).)))	rule not met
GCGTGTTGACGC ((((....))))	rule met
GTGTCTCGAAAGAGCAC (((.(((....))))))	rule not met
